- measured target: Caspase-1 (Homo sapiens, UniProt P29466, D381E)
- Sequence (P29466 120-297 limits assumed): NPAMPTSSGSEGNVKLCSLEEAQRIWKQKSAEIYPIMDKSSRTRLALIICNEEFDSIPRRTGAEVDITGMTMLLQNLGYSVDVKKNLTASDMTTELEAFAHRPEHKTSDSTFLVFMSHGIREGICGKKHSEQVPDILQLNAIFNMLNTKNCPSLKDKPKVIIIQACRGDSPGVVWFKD
- Sequence (P29466 317-404 D381E limits assumed): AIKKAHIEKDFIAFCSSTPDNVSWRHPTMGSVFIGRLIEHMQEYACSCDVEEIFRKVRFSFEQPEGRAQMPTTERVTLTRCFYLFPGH
- protocol: Compound was tested for binding affinity against N-His (D381E) Interleukin -1 beta converting enzyme
pKi: −log10 of the molar value.

- molecule: "CC(=O)NC(C(=O)N[C@@H](CC(=O)O)C(=O)COC(=O)Cc1c(Cl)ccc(Cl)c1Cl)C(C)C (stereo partly drawn)"
  measured target: "Caspase-1 (Homo sapiens, UniProt P29466, D381E)"
  pKi: 6.95
- molecule: "O=C(O)C[C@H](NC(=O)OCc1ccccc1)C(=O)COC(=O)CCc1ccccc1"
  measured target: "Caspase-1 (Homo sapiens, UniProt P29466, D381E)"
  pKi: 5.35
- molecule: "CC(=O)NC(C(=O)N[C@@H](CC(=O)O)C(=O)COC(=O)Cc1c(Cl)cccc1Cl)C(C)C (stereo partly drawn)"
  measured target: "Caspase-1 (Homo sapiens, UniProt P29466, D381E)"
  pKi: 7.09
